Molecular target: Serine/threonine-protein kinase TAO1 (Homo sapiens, UniProt Q7L7X3); further: in the data inactive means no Kd found up to 30 µM
Sequence (Q7L7X3 whole entry): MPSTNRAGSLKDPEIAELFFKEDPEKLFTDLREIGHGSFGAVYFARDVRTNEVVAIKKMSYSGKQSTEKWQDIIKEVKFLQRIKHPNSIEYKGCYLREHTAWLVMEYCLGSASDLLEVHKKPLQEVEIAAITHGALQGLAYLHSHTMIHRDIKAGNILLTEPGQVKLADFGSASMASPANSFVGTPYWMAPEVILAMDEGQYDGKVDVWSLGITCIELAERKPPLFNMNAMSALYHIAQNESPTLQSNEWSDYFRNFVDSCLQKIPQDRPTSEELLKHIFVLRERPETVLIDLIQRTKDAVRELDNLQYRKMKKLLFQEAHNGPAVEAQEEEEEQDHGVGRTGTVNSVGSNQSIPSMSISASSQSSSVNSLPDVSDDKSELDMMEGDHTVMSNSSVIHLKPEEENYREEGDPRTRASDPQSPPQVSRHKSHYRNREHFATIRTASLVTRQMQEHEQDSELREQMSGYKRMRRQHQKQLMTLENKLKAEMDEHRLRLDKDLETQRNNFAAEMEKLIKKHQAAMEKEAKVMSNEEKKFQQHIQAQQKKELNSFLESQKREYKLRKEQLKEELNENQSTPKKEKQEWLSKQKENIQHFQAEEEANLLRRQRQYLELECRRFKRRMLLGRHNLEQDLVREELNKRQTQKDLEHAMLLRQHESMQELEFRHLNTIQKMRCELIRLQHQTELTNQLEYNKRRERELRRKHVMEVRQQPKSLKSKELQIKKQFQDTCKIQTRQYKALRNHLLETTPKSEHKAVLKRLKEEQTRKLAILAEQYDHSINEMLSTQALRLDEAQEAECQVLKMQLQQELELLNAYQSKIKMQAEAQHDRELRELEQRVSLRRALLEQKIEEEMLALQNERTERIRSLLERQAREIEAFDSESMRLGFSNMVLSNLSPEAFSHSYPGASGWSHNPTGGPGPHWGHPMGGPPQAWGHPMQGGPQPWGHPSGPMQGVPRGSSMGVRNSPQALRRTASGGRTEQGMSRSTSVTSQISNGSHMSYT
Calls of active or inactive are those of the source.
Returns: one label drawn from True for active, False for inactive

Q) # fetch the recorded call for C=CC(=O)N1CCC(Oc2cc3c(Nc4ccc(Cl)c(Cl)c4F)ncnc3cc2OC)CC1 [POZIOTINIB] here
A) False

Q) # fetch the recorded call for COc1ccc(-c2ccc3c(N4CCOC[C@@H]4C)nc(N4CCOC[C@@H]4C)nc3n2)cc1CO [AZD-8055] here
A) False

Q) # fetch the recorded call for CC[C@H](Nc1ncnc2[nH]cnc12)c1nc2cccc(F)c2c(=O)n1-c1ccccc1 [IDELALISIB] here
A) False

Q) # fetch the recorded call for Cn1cc(-c2ccc3nnc(C(F)(F)c4ccc5ncccc5c4)n3n2)cn1 [JNJ-38877605] here
A) False

Q) # fetch the recorded call for CNC(=O)c1ccc(C)c(-n2c(C)cc(OCc3ccc(F)cc3F)c(Br)c2=O)c1 [PH-797804] here
A) False

Q) # fetch the recorded call for Cc1cc(-c2cc(O)ccc2Cl)cc2nnc(Nc3ccc(OCCN4CCCC4)cc3)nc12 here
A) False

Q) # fetch the recorded call for O=C(c1ccc(F)c(F)c1Nc1ccc(I)cc1F)N1CC(O)([C@@H]2CCCCN2)C1 [COBIMETINIB] here
A) False

Q) # fetch the recorded call for Cc1cc([C@@H](C)Nc2ccccc2C(=O)O)c2nc(N3CCOCC3)cc(=O)n2c1 [AZD-6482] here
A) False

Q) # fetch the recorded call for COc1cc2nccc(Oc3ccc(NC(=O)Nc4cc(C)on4)c(Cl)c3)c2cc1OC [TIVOZANIB] here
A) False

Q) # fetch the recorded call for N[C@@H]1CCCN(c2c(/C=C3\SC(=O)NC3=O)cccc2-c2ccccc2)C1 here
A) False

Q) # fetch the recorded call for CN1CCC(CNc2ccc3ncc(-c4cccc(OC(F)(F)F)c4)n3n2)CC1 [SGI-1776] here
A) False

Q) # fetch the recorded call for COC(=O)[C@@]1(O)C[C@H]2O[C@]1(C)n1c3ccccc3c3c4c(c5c6ccccc6n2c5c31)C(=O)NC4 [K-252A] here
A) True

Q) # fetch the recorded call for CO[C@H]1C[C@@H]2CC[C@@H](C)[C@@](O)(O2)C(=O)C(=O)N2CCCC[C@H]2C(=O)O[C@H]([C@H](C)C[C@@H]2CC[C@@H](OCCO)[C@H](OC)C2)CC(=O)[C@H](C)/C=C(\C)[C@@H](O)[C@@H](OC)C(=O)[C@H](C)C[C@H](C)/C=C/C=C/C=C/1C [EVEROLIMUS] here
A) False

Q) # fetch the recorded call for CCCS(=O)(=O)Nc1ccc(F)c(C(=O)c2c[nH]c3ncc(-c4ccc(Cl)cc4)cc23)c1F [VEMURAFENIB] here
A) False

Q) # fetch the recorded call for COCCNCc1ccc(-c2cc3nccc(Oc4ccc(NC(=S)NC(=O)Cc5ccc(F)cc5)cc4F)c3s2)nc1 [GLESATINIB] here
A) False

----------
Molecular target: LIM domain kinase 1 (Homo sapiens); further: in the data inactive means no Kd found up to 30 µM
Sequence (P53667 whole entry, the tested form may be a part): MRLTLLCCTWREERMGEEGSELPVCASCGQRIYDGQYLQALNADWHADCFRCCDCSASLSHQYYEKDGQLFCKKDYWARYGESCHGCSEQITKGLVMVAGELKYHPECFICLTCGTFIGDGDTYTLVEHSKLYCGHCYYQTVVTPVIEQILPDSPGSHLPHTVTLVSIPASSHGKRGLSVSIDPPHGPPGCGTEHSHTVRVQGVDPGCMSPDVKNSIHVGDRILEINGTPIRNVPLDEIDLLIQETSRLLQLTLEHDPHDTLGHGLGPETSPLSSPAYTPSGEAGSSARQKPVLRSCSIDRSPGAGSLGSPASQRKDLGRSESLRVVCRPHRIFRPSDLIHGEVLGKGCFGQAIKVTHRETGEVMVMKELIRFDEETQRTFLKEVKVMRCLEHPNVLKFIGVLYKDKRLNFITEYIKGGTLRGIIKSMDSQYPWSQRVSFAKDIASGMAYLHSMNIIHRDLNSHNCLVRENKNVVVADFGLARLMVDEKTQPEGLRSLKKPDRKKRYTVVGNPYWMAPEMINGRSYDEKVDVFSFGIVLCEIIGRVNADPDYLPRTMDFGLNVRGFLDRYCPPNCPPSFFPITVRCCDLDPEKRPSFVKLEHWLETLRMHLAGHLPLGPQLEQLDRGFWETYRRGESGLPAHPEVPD
The source made the active and inactive calls.
Returns: one label drawn from active, inactive

CN1CC[C@@H](c2c(O)cc(O)c3c(=O)cc(-c4ccccc4Cl)oc23)[C@@H]1CO :: inactive
CNC(=O)c1cc(Oc2ccc(NC(=O)Nc3ccc(Cl)c(C(F)(F)F)c3)c(F)c2)ccn1 [REGORAFENIB] :: active
CN1N=C(N)c2cn([C@@H]3O[C@H](COP(=O)(O)O)[C@@H](O)[C@H]3O)c3ncnc1c23 [TRICIRIBINE PHOSPHATE] :: inactive
CC(=O)Nc1cccc(-n2c(=O)n(C3CC3)c(=O)c3c(Nc4ccc(I)cc4F)n(C)c(=O)c(C)c32)c1 [TRAMETINIB] :: inactive

Q) # fetch the recorded call for CNC(=O)c1ccc(-c2cnc3ncc(Cc4ccc5ncccc5c4)n3n2)cc1F [CAPMATINIB] here
A) inactive

Q) # fetch the recorded call for CCS(=O)(=O)N1CC(CC#N)(n2cc(-c3ncnc4[nH]ccc34)cn2)C1 [BARICITINIB] here
A) inactive

Q) # fetch the recorded call for N[C@@H]1CCCN(c2c(/C=C3\SC(=O)NC3=O)cccc2-c2ccccc2)C1 here
A) inactive

Q) # fetch the recorded call for CCCS(=O)(=O)Nc1ccc(F)c(C(=O)c2c[nH]c3ncc(-c4ccc(Cl)cc4)cc23)c1F [VEMURAFENIB] here
A) inactive
